# STATED_CONDITIONS: 323.15 K; Liquid; Closed cell (Static) method
REPORTED_ENDPOINT: vapor or sublimation pressure (kPa)

In the examples that follow, each entry is paired with its recorded vapor or sublimation pressure.
CCCCO ... 4.61
CCO ... 29.37

[I] CO
[II] CCCO
## Task Among I and II , whose measured vapor or sublimation pressure is the smaller figure? # answer = label of selected item
## Result II

Source listed as the NIST ThermoML archive (doi:10.1021/je0603574).
